Entries annotated with measured MIC
- Test system: Staphylococcus aureus 285
recordedEndpoint: MIC (µg/mL)

- compound: "CO/N=C(\\C(=O)N[C@@H]1C(=O)N2C(C(=O)O)=C(COC(C)=O)CS[C@H]12)c1csc(N)n1 [CTX, Cefotaxime, reference compound]"
  unitSpec: "µg/mL"
  readoutNumber: 1.6
- compound: "CC[N+](C)(CC=CC(N)=O)C/C=C/C1=C(C(=O)[O-])N2C(=O)[C@@H](NC(=O)/C(=N\\OC)c3csc(N)n3)[C@H]2SC1 (some centres unmarked)"
  unitSpec: "µg/mL"
  readoutNumber: 0.4
- compound: "CO/N=C(\\C(=O)N[C@@H]1C(=O)N2C(C(=O)[O-])=C(/C=C/C[N+](C)(C)Cc3scnc3C)CS[C@H]12)c1csc(N)n1"
  unitSpec: "µg/mL"
  readoutNumber: 0.4
- compound: "CC[N+](C)(CC=CC(N)=O)C/C=C/C1=C(C(=O)[O-])N2C(=O)[C@@H](NC(=O)/C(=N\\OCCF)c3nsc(N)n3)[C@H]2SC1 (some centres unmarked)"
  unitSpec: "µg/mL"
  readoutNumber: 0.8
- compound: "Cc1ncsc1C[N+](C)(C)C/C=C/C1=C(C(=O)[O-])N2C(=O)[C@@H](NC(=O)/C(=N\\OCCF)c3nsc(N)n3)[C@H]2SC1"
  unitSpec: "µg/mL"
  readoutNumber: 0.8
- compound: "CO/N=C(\\C(=O)N[C@@H]1C(=O)N2C(C(=O)[O-])=C(C[n+]3cccc4c3CCC4)CS[C@H]12)c1csc(N)n1 [CPR, Cefpirome, reference compound]"
  unitSpec: "µg/mL"
  readoutNumber: 0.4
- compound: "CC[N+](C)(CC=CC(N)=O)C/C=C/C1=C(C(=O)[O-])N2C(=O)[C@@H](NC(=O)/C(=N\\OC)c3nsc(N)n3)[C@H]2SC1 (some centres unmarked)"
  unitSpec: "µg/mL"
  readoutNumber: 0.8
- compound: "CC[N+](C)(CC=CC(N)=O)C/C=C/C1=C(C(=O)[O-])N2C(=O)[C@@H](NC(=O)/C(=N\\OCCF)c3csc(N)n3)[C@H]2SC1 (some centres unmarked)"
  unitSpec: "µg/mL"
  readoutNumber: 0.8

====

Consider compounds characterized by their MIC with Enterobacter cloace 1321E.
recordedEndpoint: MIC (µg/mL)

- compound: "CO/N=C(\\C(=O)N[C@@H]1C(=O)N2C(C(=O)[O-])=C(C[n+]3cccc4c3CCC4)CS[C@H]12)c1csc(N)n1 [CPR, Cefpirome, reference compound]"
  readoutNumber: 0.025
- compound: "CC[N+](C)(CC=CC(N)=O)C/C=C/C1=C(C(=O)[O-])N2C(=O)[C@@H](NC(=O)/C(=N\\OCCF)c3nsc(N)n3)[C@H]2SC1 (some centres unmarked)"
  readoutNumber: 0.05
- compound: "CC[N+](C)(CC=CC(N)=O)C/C=C/C1=C(C(=O)[O-])N2C(=O)[C@@H](NC(=O)/C(=N\\OC)c3csc(N)n3)[C@H]2SC1 (some centres unmarked)"
  readoutNumber: 0.025
- compound: "CO/N=C(\\C(=O)N[C@@H]1C(=O)N2C(C(=O)[O-])=C(/C=C/C[N+](C)(C)Cc3scnc3C)CS[C@H]12)c1csc(N)n1"
  readoutNumber: 0.012
- compound: "Cc1ncsc1C[N+](C)(C)C/C=C/C1=C(C(=O)[O-])N2C(=O)[C@@H](NC(=O)/C(=N\\OCCF)c3nsc(N)n3)[C@H]2SC1"
  readoutNumber: 0.012
- compound: "CC[N+](C)(CC=CC(N)=O)C/C=C/C1=C(C(=O)[O-])N2C(=O)[C@@H](NC(=O)/C(=N\\OCCF)c3csc(N)n3)[C@H]2SC1 (some centres unmarked)"
  readoutNumber: 0.05
- compound: "CC[N+](C)(CC=CC(N)=O)C/C=C/C1=C(C(=O)[O-])N2C(=O)[C@@H](NC(=O)/C(=N\\OC)c3nsc(N)n3)[C@H]2SC1 (some centres unmarked)"
  readoutNumber: 0.05
- compound: "CO/N=C(\\C(=O)N[C@@H]1C(=O)N2C(C(=O)O)=C(COC(C)=O)CS[C@H]12)c1csc(N)n1 [CTX, Cefotaxime, reference compound]"
  readoutNumber: 0.05

====

Each entry below lists one item and its recorded LD50 at 168 h value.
- testSummary: Acute toxicity study
- Assay type: in vivo
- testConditions: mouse, in vivo, sc, s.c, male ICR mouse, 4 weeks; mortality at seven days; read-out: LD50 s.c

- compound: "CO/N=C(\\C(=O)N[C@@H]1C(=O)N2C(C(=O)[O-])=C(/C=C/C[N+](C)(C)Cc3scnc3C)CS[C@H]12)c1csc(N)n1 [Example 1]"
  LD50 at 168 h: "> 4000 mg/kg"
- compound: "CO/N=C(\\C(=O)N[C@@H]1C(=O)N2C(C(=O)[O-])=C(/C=C/C[N+](C)(C)Cc3nc[nH]c3C)CS[C@H]12)c1csc(N)n1 [Example 2]"
  LD50 at 168 h: "> 3000 mg/kg"
- compound: "CC[N+](C)(CC=CC(N)=O)C/C=C/C1=C(C(=O)[O-])N2C(=O)[C@@H](NC(=O)/C(=N\\OC)c3nsc(N)n3)[C@H]2SC1 (stereo partly shown) [Example 13]"
  LD50 at 168 h: "> 3000 mg/kg"
- compound: "CC[N+](C)(CC=CC(N)=O)C/C=C/C1=C(C(=O)[O-])N2C(=O)[C@@H](NC(=O)/C(=N\\OC)c3csc(N)n3)[C@H]2SC1 (stereo partly shown) [Example 6]"
  LD50 at 168 h: "> 3000 mg/kg"
